Tested on: HL-60(TB) leukemia
Test: NCI tumour cell line growth inhibition, 48 h
ENDPOINT: TGI

The cases that follow already have their TGI on record.
                                   compound  data_value
0  CCOC(=O)CC1COc2ccc3c(c21)OCO3 (stereo unspecified)    > 100 µM
1       Cc1cc(S(=O)(=O)N2CCNNC2=O)c(S)cc1Cl    > 100 µM
2           CN(C)CCCN(CCC1CCCCC1)CCC1CCCCC1     9.88 µM
3  COc1ccc(/C=C2/CSCC3=C2NC(=S)NC3c2ccc(OC)c(OC)c2OC)c(OC)c1OC (stereo unspecified)    > 100 µM
4  COc1ccc(C#Cc2ccc(=O)oc2-c2cc(OC)c(OC)c(OC)c2)cc1O     17.4 µM

Report TGI for every entry below.
1. CC(=O)Nc1ccc2nc(-c3ccccn3)c(-c3ccccn3)nc2c1
2. O=c1[nH]nc(NCc2ccccc2)c2nnn(Cc3ccccc3)c12

Key:
1: > 100 µM; 2: > 100 µM

Provide the reported TGI of each entry below, same order.
1. OCC1COc2cc(Cl)c(Cl)cc2O1 (stereo unspecified)
2. O=[N+]([O-])C(/C=C(\Cl)[N+](=O)[O-])=C1Nc2ccccc2N1
3. COC(=O)c1cc(C(=O)OC)c(CC(=O)C(=O)NC2C3CC4CC(C3)CC2C4)nc1CC(=O)C(=O)NC1C2CC3CC(C2)CC1C3 (stereo unspecified)
4. CCCCn1c(CSc2ccc(Cl)cc2)c(C(=O)OCC)c2cc(OC)c(Br)cc21

Key:
1. > 10 µM
2. > 100 µM
3. > 100 µM
4. > 100 µM

====

Test system: UACC-62 melanoma
Assay: NCI tumour cell line growth inhibition, 48 h; in the data active means GI50 below about 0.43 µM; inactive means the rest
Bench note: report the call from yes for active, no for inactive

Field: example entries. Status: answers known.
COMPOUND	MEASUREMENT_TARGET	CLASS_ASSIGNMENT
CCCCCCCCCCCCCCCC1=NCCN1	UACC-62 melanoma	no
COc1cc(C2CC(c3cccc(Nc4ccnc5cc(Cl)ccc45)c3)=NN2c2ccc(Cl)cc2)cc(OC)c1OC (stereo not drawn)	UACC-62 melanoma	yes
Nc1c(C(=O)Nc2ccccc2)sc2nc3c(cc12)CCCCC3	UACC-62 melanoma	yes
O=c1oc2ccc(I)cc2c(=O)n1-c1ccc(F)cc1F	UACC-62 melanoma	no

Exercise: What classification did COC(=O)C1=C(O)[C@H](C(=O)OC)C2(O)C(C(=O)OC)[C@H](c3ccc(OC(=O)C(C)c4ccccc4)cc3)C[C@@H]1[C@@H]2C(=O)OC (stereo partly drawn) end up with in this test?
Key: no

Exercise: Hey, what did the test say about `CSC(=NC#N)S/C=C/C(=O)c1ccccc1` ?
Key: no

Exercise: I'd appreciate the recorded outcome for `Cc1nc2c(c(N3CCCc4ccccc43)n1)CCC2` from this test.
Key: yes

Exercise: // param item: `Oc1ccc(O)c(-c2cn3c(n2)SCC3)c1` ; yields the recorded call
Key: no

Exercise: I'd appreciate the recorded outcome for CCCCC(CCCCCC(CCCC)NCc1ccc2c(c1)OCO2)NCc1ccc2c(c1)OCO2 (stereo not drawn) from this test.
Key: no

Exercise: What classification did `CCC[CH2][Sn]([CH2]CCC)([O]c1cccc2cccnc12)[O]c1cccc2cccnc12` end up with in this test?
Key: yes

Exercise: Identify the outcome logged in this assay for the compound shown: `COc1cc(OC)cc(-c2ccc(-c3ccc(C(=N)N)cn3)o2)c1`
Key: no

Exercise: Please state the recorded outcome for this compound: `O=S(=O)([O-])c1ccc(N=Cc2ccccc2[O-])cc1.O=S(=O)([O-])c1ccc(N=Cc2ccccc2[O-])cc1.[Co+2]`
Key: no

Exercise: Assay result, entry `COc1ccc2c3c(Nc4cccc(/C(C)=N\O)c4)[nH]c4ccccc4c-3c(N=O)c2c1` — outcome?
Key: no

====

System: MDA-MB-435
Assay: NCI tumour cell line growth inhibition, 48 h
ENDPOINT: TGI (µM)
Answers are plain numbers, in µM.

Examples from the recorded data:
                                   compound  endpoint  data_value
0  Nc1ccc2[nH]c(-c3cccc(C(F)(F)F)c3)cc(=O)c2c1       TGI        88.6
1                   CCCCCCCCCCCCCCCC1=NCCN1       TGI        3.26
2   Nc1c(C(=O)Nc2ccccc2)sc2nc3c(cc12)CCCCC3       TGI       0.522
3           CN(C)CCCN(CCC1CCCCC1)CCC1CCCCC1       TGI        3.03

Value sought for every listed compound: TGI.
1. CN(C)c1ccc(/C=C/c2ccc(S(N)(=O)=O)cc2)cc1
2. OC1c2ccccc2CCC1CN1CCN(CCOC(c2ccc(F)cc2)c2ccc(F)cc2)CC1 (configuration not stated)
3. CC1(c2sccc2Cl)CC(c2sccc2Cl)=C(C#N)C(=C(C#N)C#N)N1 (configuration not stated)

Key:
[23.7, 80.1, 48.3]

====

System: K-562 leukemia
Experiment: NCI tumour cell line growth inhibition, 48 h
ENDPOINT: TGI (µM)
Numbers only, in µM.

Each molecule below has a recorded value; state its TGI.
1. CC/C=C\C[C@H](F)C/C=C1/C(=O)C=C[C@@H]1C/C=C\CCCC(=O)OC
2. Cc1c[n+]2c3ccccc3c3ccccc3c2s1
3. CC1=C2CC(C)(C)/C=C\C(=O)/C(C)=C\C3=C[C@H](C)C[C@]3(O2)C1=O

Key:
1. 6.19
2. 44.5
3. 14.4

====

System: SNB-19 CNS
Test: NCI tumour cell line growth inhibition, 48 h
Exercise: for every item that follows, state its recorded TGI.

Take a look at these entries with their results.
MOLECULE	TGI
N#CCc1c(-c2ccccc2)n(S(=O)(=O)c2ccccc2)c2ccccc12	> 100 µM
N.N.N.N.N.NC(=O)[O-].[Co+3].[I-]	> 100 µM

Lab note: each molecule below needs its TGI filled in.
1. O=C1/C=C/[C@@H](O)[C@@H]2C[C@@H](O)C[C@H]2/C=C/CCC[C@H](CCc2cccc3ccccc23)O1
2. O=C(Cc1ccccc1F)NC1=C(Cl)C(=O)c2ccccc2C1=O
3. COc1cc2c3cc1Oc1c(OC)c(OC)cc4c1C(=NCC4)Cc1ccc(cc1)Oc1cc(ccc1O)C[C@H]3N(C)CC2
4. COc1cc(C2C3=C(COC3=O)Oc3cc4c(cc32)OCO4)ccc1O (stereo not given)
5. CO[C@H]1C=CO[C@@]2(C)Oc3c(C)c(O)c4c(O)c(c(CN5CCN(C)CC5)c(O)c4c3C2=O)NC(=O)/C(C)=C\C=C[C@H](C)[C@H](O)C(C)[C@@H](O)C(C)[C@H](OC(C)=O)[C@@H]1C (stereo not given in full)

Key:
22 µM
25.2 µM
61.6 µM
> 100 µM
> 100 µM

====

System: NCI-H522 lung
Experiment: NCI tumour cell line growth inhibition, 48 h
Hi there, I'd appreciate the recorded TGI for every entry that follows.

As a guide, the following entries are already answered.
>>> df
                                   compound  data_value
0  COc1cc(C(=O)O[C@H](C(=O)NCCCNC(=O)[C@@H](OC(=O)c2cc(OC)cc3c(C)cccc23)[C@]2(C)CO2)[C@]2(C)CO2)c2cccc(C)c2c1   < 0.01 µM
1  COCCN(CCNC(=O)c1cccc2c(N)c3cccc(C)c3nc12)CCOC    0.894 µM

Parameters: items (list). Returns: TGI for each item.
1. C[C@@]1(C(=O)O)CCC[C@]2(C)C1CC[C@@]13C[C@@](O)(CC[C@]12O)[C@@]1(CO1)C3 (some centres undefined)
2. O=C1C(=O)N(c2ccc(Cl)cc2)C(=O)C(=O)C1c1nc2ccccc2o1
3. CCOC(=O)c1nc2ccc(C(F)(F)F)cc2nc1Nc1cc(OC)c(OC)c(OC)c1

Key:
1: > 100 µM; 2: > 100 µM; 3: > 100 µM

====

For each record, write down the corresponding TGI.
Test system: OVCAR-4 ovarian
Assay: NCI tumour cell line growth inhibition, 48 h

Known results for molecules:
>>> print(df.to_string())
                                   molecule  endpoint  data_value
0  CC(=O)O[C@H]([C@H](OC(C)=O)[C@H](C)OC(C)=O)[C@@H](/C=C/[C@@H]1CC=CC(=O)O1)OC(C)=O       TGI    > 100 µM
1  CC(C)C12Cc3c(ccc4ccccc34)OC1(C)Oc1ccc3ccccc3c1C2 (configuration not stated)       TGI    > 100 µM
2                  N#Cc1ccc(Cc2ccccn2)cc1Cl       TGI    > 100 µM
3  COc1cccc(/C=N/NC(=O)CSCC(=O)N/N=C/c2cccc(OC)c2OC)c1OC       TGI    > 100 µM
4  C=CC(O)(CBr)CCC(Br)C(=C)C (configuration not stated)       TGI     > 10 µM

List TGI for every entry below, keeping the order given.
1. COc1ccc(/C(C)=N/NC(=O)c2ccncc2)c(OC)c1
2. CN(C)c1ccc(/C=C/c2ccc(S(N)(=O)=O)cc2)cc1
3. Cc1ccc(C2(c3ccc(Cl)cc3)c3ccccc3C3=NCCN32)cc1 (configuration not stated)
4. COC(=O)c1ccccc1N(C(=O)c1ccccc1)c1ccccc1C

Key:
["> 10 µM", "10.1 µM", "16.9 µM", "> 100 µM"]

Answer for every listed entry: what is its TGI? The entries follow.
1. CC12C3C4C1C1C2C3C41CO (configuration not stated)
2. CC(C)N(O)C(=N)c1ccccc1
3. COc1ccc(C2=NN(c3ccccc3)C[N+](c3ccc(C)cc3)=N2)cc1

Key:
["> 100 µM", "> 100 µM", "43.3 µM"]

Where do these numbers come from? They come from PubChem BioAssay (NCI).
